Origin of the recorded values: the supplement of paper PMC12458215

Below, each of the sequences is paired with its reported plasma membrane surface immunostaining intensity value.
Test system: HEK293T
Assay: plasma membrane surface immunostaining intensity (anti-HA, deep receptor scanning) (arbitrary fluorescence units); higher = higher plasma membrane expression
Conditions: GPCR class: A
MEASURE: plasma membrane surface immunostaining intensity

RESIDUE_SEQUENCE: METNFSIPLNETEEVLPEPAGHTVLWIFSLLVHGVTFVFGVLGNGLVIWVAGFRMTRTVNTICYLNLALADFSFSAILPFRMVSVAMREKWPFGSFLCKLVHVMIDINLFVSVYLITIIALDRCICVLHPAWAQNHRTMSLAKRVMTGLWIFTIVLTLPNFIFWTTISTTNGDTYCIFNFAFWGDTAVERLNVFITMAKVFLILHFIIGFSVPMSIITVCYGIIAAKIHRNHMIKSSRPLRVFAAVVASFFICWFPYELIGILMAVWLKEMLLNGKYKIILVLINPTSSLAFFNSCLNPILYVFMGRNFQERLIRSLPTSLERALTEVPDSAQTSNTDTTSASPPEETELQAM [FPR3]
VALUE_MEASURED: 6430

RESIDUE_SEQUENCE: MRMEDEDYNTSISYGDEYPDYLDSIVVLEDLSPLEARVTRIFLVVVYSIVCFLGILGNGLVIIIATFKMKKTVNMVWFLNLAVADFLFNVFLPIHITYAAMDYHWVFGTAMCKISNFLLIHNMFTSVFLLTIISSDRCISVLLPVWSQNHRSVRLAYMACMVIWVLAFFLSSPSLVFRDTANLHGKISCFNNFSLSTPGSSSWPTHSQMDPVGYSRHMVVTVTRFLCGFLVPVLIITACYLTIVCKLQRNRLAKTKKPFKIIVTIIITFFLCWCPYHTLNLLELHHTAMPGSVFSLGLPLATALAIANSCMNPILYVFMGQDFKKFKVALFSRLVNALSEDTGHSSYPSHRSFTKMSSMNERTSMNERETGML [CMKLR1]
VALUE_MEASURED: 747
